Tested on: HL-60 cells
Assay: Apoptosis (sub-G1) by flow cytometry
Assay type: cell-based, human
Details: HL-60, 50 μM, 24 h, mean ± SE
Method: Cell Culture and Chemicals. The COLO 205 and HT 29 cell lines were isolated from human colon adenocarcinoma (ATCC CCL-222 and HTB-38); human promyelocytic leukemia (HL-60) cells were obtained from American Type Culture Collection (Rockville, Md.). […] Flow Cytometry. […] The apoptotic cells (sub-G1) in the selected compounds and treated cells were measured by flow cytometry analysis. […]
endpoint.label: apoptotic ratio (%)
Please give a number only; it is taken to be in %.

Illustrative cases are given below, each with its answer.
molecule	endpoint.label	readout.value
C=C1C(=O)O[C@@H]2CC(C)=C([C@@H](C)CCCO)[C@H](O)[C@H]12	apoptotic ratio	8.01
C=C1C(=O)OC2CC(C)=C(C(C)CCCOC(C)=O)C(O)C12 (stereo not shown)	apoptotic ratio	5.69
C=C1C(=O)OC2C=C(C)CCC=C(C)CC(O)C12 (stereo not shown)	apoptotic ratio	96.94
C=C1C(=O)OC2CC(C)=C(C(C)CCCOC(C)=O)C(OC(C)=O)C12 (stereo not shown)	apoptotic ratio	27.02

What value of measured apoptotic ratio is listed for C=C1C(=O)OC2CC(C)=C(C(C)CCCO)C(OC(=O)C(C)CC)C12 (stereo not shown) ? 28.60

How about `C=C1C(=O)O[C@H]2/C=C(\C)CC/C=C(\C)C[C@H](OC(C)=O)[C@@H]12` ? 97.74

Proceed to `CC(=O)OCCC[C@H](C)C1=C[C@@H]2[C@H](C)C(=O)O[C@@H]2C[C@@]1(C)O` 6.63

====

Each item that follows carries a reported apoptotic ratio.
tested on: HL-60 cells; test: Apoptosis (sub-G1) by flow cytometry; type: cell-based, human; conditions: HL-60, 5 μM, 24 h, mean ± SE
Use % as the unit, but write only the number.

# annotated cases, reported apoptotic ratio shown
molecule	apoptotic ratio (%)
C=C1C(=O)O[C@H]2/C=C(\C)CC/C=C(\C)C[C@H](OC(C)=O)[C@@H]12	22.93
CC(=O)OCCC[C@H](C)C1=C[C@@H]2[C@H](C)C(=O)O[C@@H]2C[C@@]1(C)O	6.68
C=C1C(=O)OC2CC(C)=C(C(C)CCCO)C(OC(=O)C(C)CC)C12 (stereo not shown)	6.41
C=C1C(=O)OC2C=C(C)CCC=C(C)CC(O)C12 (stereo not shown)	9.82
C=C1C(=O)O[C@@H]2CC(C)=C([C@@H](C)CCCO)[C@H](O)[C@H]12	7.22

Next, consider the following molecule.
Query apoptotic ratio on HL-60 cells for C=C1C(=O)OC2CC(C)=C(C(C)CCCOC(C)=O)C(O)C12 (stereo not shown) 4.05

====

Reported apoptotic ratio values are given for each entry in this list.
tested on: AGS cells; experiment: Apoptosis (sub-G1) by flow cytometry; format: cell-based, human; details: 10 μM, 24 h, mean ± SE
Please state the figure in %; there is no need to write the unit.

Completed entries (count: 5):
molecule	experimental.system	uom	apoptotic ratio
C=C1C(=O)OC2C=C(C)CCC=C(C)CC(O)C12 (stereo not shown)	AGS cells	%	8.66
C=C1C(=O)OC2CC(C)=C(C(C)CCCO)C(OC(=O)C(C)CC)C12 (stereo not shown)	AGS cells	%	11.38
C=C1C(=O)O[C@@H]2CC(C)=C([C@@H](C)CCCO)[C@H](O)[C@H]12	AGS cells	%	10.37
C=C1C(=O)O[C@H]2/C=C(\C)CC/C=C(\C)C[C@H](OC(C)=O)[C@@H]12	AGS cells	%	7.87
CC(=O)OCCC[C@H](C)C1=C[C@@H]2[C@H](C)C(=O)O[C@@H]2C[C@@]1(C)O	AGS cells	%	9.83

Lab note: need apoptotic ratio for C=C1C(=O)OC2CC(C)=C(C(C)CCCOC(C)=O)C(O)C12 (stereo not shown) on AGS cells, anyone have it? 17.28

Similarly, C=C1C(=O)OC2CC(C)=C(C(C)CCCOC(C)=O)C(OC(C)=O)C12 (stereo not shown) ? 5.79

====

system: HT-29 cells; experiment: Cell viability, trypan blue exclusion, 24 h; assay type: cell-based; conditions: HT-29, 24 h, mean ± SE, n=3, read-out: IC50, growth of human cancer cells
endpoint.label: pIC50
Convention used: pIC50 is expressed as -log10 of the molar concentration.

molecule	pIC50
C=C1C(=O)OC2CC(C)=C(C(C)CCCO)C(OC(=O)C(C)CC)C12 (stereo not drawn) [Compound 1, 6β-O-(2-methylbutyryl)-britannilactone]	4.32

Next:
Reported pIC50 for C=C1C(=O)OC2C=C(C)CCC=C(C)CC(O)C12 (stereo not drawn) [Compound 3] : what is it? 4.25

====

test system: human AGS gastric carcinoma cell lines; experiment: Cell survival assay (Example 3), trypan blue exclusion; type: cell-based; conditions: 24 h treatment, Example 3, FIG. 2, read-out: IC50, cell viability
endpoint.label: pIC50
Entry type: numeric. Quantity: pIC50, the -log10 of concentration in molar units.

compound	endpoint.label	readout.value
C=C1C(=O)OC2C=C(C)CCC=C(C)CC(O)C12 (centres unmarked) [Compound 3]	pIC50	5.12

Now for another entry.
Need pIC50 of C=C1C(=O)O[C@H]2/C=C(\C)CC/C=C(\C)C[C@H](OC(C)=O)[C@@H]12 [Compound 4, acetyl neobritannilactone B] , thanks. 5.38

====

The following compounds are listed with their measured apoptotic ratio values.
tested on: COLO 205 cells; test: Apoptosis (sub-G1) by flow cytometry; assay type: cell-based, human; conditions: COLO 205, 10 μM, 24 h, mean ± SE

compound	experimental.system	apoptotic ratio
C=C1C(=O)OC2C=C(C)CCC=C(C)CC(O)C12 (stereo not shown) [Compound 3]	COLO 205 cells	14.12 ± 1.06%
CC(=O)OCCC[C@H](C)C1=C[C@@H]2[C@H](C)C(=O)O[C@@H]2C[C@@]1(C)O [Compound 2, neobritannilactone A]	COLO 205 cells	6.51 ± 2.28%
C=C1C(=O)OC2CC(C)=C(C(C)CCCOC(C)=O)C(O)C12 (stereo not shown) [Compound 6, 1-O-acetylbritannilactone]	COLO 205 cells	11.32 ± .421%
C=C1C(=O)OC2CC(C)=C(C(C)CCCOC(C)=O)C(OC(C)=O)C12 (stereo not shown) [Compound 7, 1,6-O,O-diacetylbritannilactone]	COLO 205 cells	8.69 ± 1.65%
C=C1C(=O)OC2CC(C)=C(C(C)CCCO)C(OC(=O)C(C)CC)C12 (stereo not drawn) [Compound 1, 6β-O-(2-methylbutyryl)-britannilactone]	COLO 205 cells	5.86 ± 0.32%

Dear colleague, I am looking for the recorded apoptotic ratio of the following compound: C=C1C(=O)O[C@@H]2CC(C)=C([C@@H](C)CCCO)[C@H](O)[C@H]12 [Compound 5, britannilactone] 12.28 ± 5.24%

And then C=C1C(=O)O[C@H]2/C=C(\C)CC/C=C(\C)C[C@H](OC(C)=O)[C@@H]12 [Compound 4, acetyl neobritannilactone B] , what is it? 34.72 ± 2.72%

====

test system: HT-29 cells; test: Cell viability, trypan blue exclusion, 24 h; assay type: cell-based; conditions: HT-29, 24 h, mean ± SE, n=3, read-out: IC50, growth of human cancer cells
endpoint.label: pIC50
Quick note: pIC50 means taking -log10 of the concentration in moles per liter.

Which pIC50 value belongs to C=C1C(=O)O[C@H]2/C=C(\C)CC/C=C(\C)C[C@H](OC(C)=O)[C@@H]12 [Compound 4, acetyl neobritannilactone B] ? 4.24

Continue with C=C1C(=O)OC2CC(C)=C(C(C)CCCOC(C)=O)C(O)C12 (stereo not drawn) [Compound 6, 1-O-acetylbritannilactone] 4.02

Please give the result for C=C1C(=O)OC2CC(C)=C(C(C)CCCOC(C)=O)C(OC(C)=O)C12 (stereo not drawn) [Compound 7, 1,6-O,O-diacetylbritannilactone] too. 4.12

====

Consider the following compounds and their measured apoptotic ratio readings.
system: AGS cells; assay: Apoptosis (sub-G1) by flow cytometry; type: cell-based, human; settings: 50 μM, 24 h, mean ± SE
Only the number, expressed in %, is required.

The examples below pair each entry with its known result.
compound	experimental.system	readout.value
C=C1C(=O)O[C@@H]2CC(C)=C([C@@H](C)CCCO)[C@H](O)[C@H]12	AGS cells	8.97
C=C1C(=O)OC2CC(C)=C(C(C)CCCO)C(OC(=O)C(C)CC)C12 (stereo not shown)	AGS cells	28.48

# ---- query compound ----
What does the data say about its apoptotic ratio? Entry: C=C1C(=O)OC2C=C(C)CCC=C(C)CC(O)C12 (stereo not shown) 15.95

====

apoptotic ratio for assorted compounds
System: HT-29 cells
Assay: Apoptosis (sub-G1) by flow cytometry
Assay type: cell-based, human
Conditions: HT-29, 10 μM, 24 h, mean ± SE
Protocol: Cell Culture and Chemicals. The COLO 205 and HT 29 cell lines were isolated from human colon adenocarcinoma (ATCC CCL-222 and HTB-38); human promyelocytic leukemia (HL-60) cells were obtained from American Type Culture Collection (Rockville, Md.). […] Flow Cytometry. […] The apoptotic cells (sub-G1) in the selected compounds and treated cells were measured by flow cytometry analysis. […]

compound	readout.value
CC(=O)OCCC[C@H](C)C1=C[C@@H]2[C@H](C)C(=O)O[C@@H]2C[C@@]1(C)O [Compound 2, neobritannilactone A]	4.24 ± 0.24%
C=C1C(=O)OC2C=C(C)CCC=C(C)CC(O)C12 (stereo not shown) [Compound 3]	24.46 ± .88%
C=C1C(=O)O[C@@H]2CC(C)=C([C@@H](C)CCCO)[C@H](O)[C@H]12 [Compound 5, britannilactone]	6.16 ± 1.23%
C=C1C(=O)OC2CC(C)=C(C(C)CCCOC(C)=O)C(OC(C)=O)C12 (stereo not shown) [Compound 7, 1,6-O,O-diacetylbritannilactone]	11.15 ± 2.84%
C=C1C(=O)OC2CC(C)=C(C(C)CCCOC(C)=O)C(O)C12 (stereo not shown) [Compound 6, 1-O-acetylbritannilactone]	6.81 ± 2.14%

What does the record list as apoptotic ratio for C=C1C(=O)OC2CC(C)=C(C(C)CCCO)C(OC(=O)C(C)CC)C12 (stereo not drawn) [Compound 1, 6β-O-(2-methylbutyryl)-britannilactone] ? 3.68 ± 0.47%

Same question for C=C1C(=O)O[C@H]2/C=C(\C)CC/C=C(\C)C[C@H](OC(C)=O)[C@@H]12 [Compound 4, acetyl neobritannilactone B] please. 47.56 ± 0.00%
